System: HIV infected lymphocyte derived CEM cells
test protocol: Cellular infection assay in CEM cells, XTT cytopathic procedure (EC50)
condition set: Human immunodeficiency virus 1, CCRF-CEM, read-out: Antiviral Efficacy EC50
outcome measure: log10 of EC50 (log10 of the value in µM)

compound="Cc1cc(SC2=C(O)CC(CCc3csc(C(C)C)n3)(C(C)C)OC2=O)c(C(C)(C)C)cc1CO (racemic)" reported_value=1.36
compound="Cc1cc(SC2=C(O)CC(CCc3ccsc3)(C(C)C)OC2=O)c(C(C)(C)C)cc1N (racemic)" reported_value=0.18
compound="Cc1cc(SC2=C(O)CC(CCc3cncnc3)(C(C)C)OC2=O)c(C(C)(C)C)cc1CO (racemic)" reported_value=0.11
compound="Cc1cc(SC2=C(O)CC(CCC3CCCO3)(C(C)C)OC2=O)c(C(C)(C)C)cc1N (racemic)" reported_value=1.00
compound="Cc1cc(SC2=C(O)CC(CCc3csc(CO)c3)(C(C)C)OC2=O)c(C(C)(C)C)cc1CO (centres unmarked)" reported_value=0.26
compound="Cc1csc(CCC2(C(C)C)CC(O)=C(Sc3cc(C)c(CO)cc3C(C)(C)C)C(=O)O2)n1 (centres unmarked)" reported_value=-0.10
compound="Cc1cc(SC2=C(O)CC(CCc3ccsc3CO)(C(C)C)OC2=O)c(C(C)(C)C)cc1N (centres unmarked)" reported_value=-0.54
compound=CC(C)[C@]1(CCc2cccc(F)c2)CC(O)=C(Sc2cc3sc(N)nc3cc2C(C)(C)C)C(=O)O1 reported_value=-0.59

Recorded values, source patent US6528510B1.
